tested on: Dihydrolipoyl dehydrogenase (Trypanosoma cruzi); experiment: The second order rate constant of the TcLipDH (Trypanosoma cruzi lipoamide dehydrogenase) catalyzed NADH oxidation.
readout-type: k cat/Km

1. CC1=C(CCCNC(=O)OC(C)(C)C)C(=O)c2ccccc2C1=O    8.4 10e4 M-1 s-1
2. CC1=C(CCC(=O)O)C(=O)c2ccccc2C1=O    6.6 10e4 M-1 s-1
3. CC1=C(CCC(=O)NCCCN2CCN(C)CC2)C(=O)c2ccccc2C1=O    3 10e4 M-1 s-1
4. CC1=C(CCC(=O)O)C(=O)c2c(O)cccc2C1=O    10.2 10e4 M-1 s-1
